# System: OVCAR-3 ovarian
# protocol-details: NCI tumour cell line growth inhibition, 48 h; in the data active = GI50 below about 0.43 µM; inactive = the rest
Respond only with the outcome that fits, drawn from true (1) = active, false (0) = inactive

Before answering, review these 4 worked examples.
compound: Cc1ccccc1NC(=O)N/C(N)=N/c1nc(-c2cccc([N+](=O)[O-])c2)cs1
assigned-label: false (0)
//
compound: ClCc1cccc(Cn2cnc3c(NC45CC6CC(CC(C6)C4)C5)ncnc32)c1
assigned-label: false (0)
//
compound: COc1cc(Nc2nccc(Nc3ccc4c(C)[nH]nc4c3)n2)cc(OC)c1OC
assigned-label: false (0)
//
compound: CCOC(=O)c1cc(C#N)c(=O)n(/N=C(\C)c2ccncc2)c1O
assigned-label: false (0)

# input Returns: the outcome recorded for `COc1ccc(CN(C)c2ccc(CO)c(Cl)c2)cc1` in this assay.
# output false (0)

# input Hi, do you know how `CC(C)(C#N)c1cc(Cn2cncn2)cc(C(C)(C)C#N)c1` came out in this test?
# output false (0)

# input Please state the recorded outcome for this compound: `COc1cc(C(=O)/C(C)=C/c2c[nH]c3ccccc23)cc(OC)c1OC`
# output true (1)

# input GET /call?item= CCOC(=O)C(N)C[S][Sn]([CH3])([CH3])[Cl] (stereo not given) returns the recorded outcome of this test.
# output false (0)

# input Which outcome was entered for the compound `O=C(/C=C/c1ccc(F)cc1)c1ccc(Cl)cc1Cl` in this test?
# output false (0)

# input Answer briefly: the call reported for `COc1cc2c(cc1OCCCOc1cc3c(cc1OC)C(=O)N1C[C@H](F)C[C@H]1C=N3)N=C[C@@H]1C[C@@H](F)CN1C2=O` in this assay.
# output false (0)

# input Give the logged outcome of this assay for the following compound: `COc1cc(/C=C/C(=O)CC(=O)/C=C/c2cc(OC)c(OC)c(OC)c2)cc(OC)c1OC`
# output false (0)

# input Each compound tested received a call. Report the one for `CN[C@@H](C)C(=O)N[C@H](C(=O)N1CCC[C@H]1C(=O)N[C@H]1c2ccccc2C[C@H]1OCC#CC#CCO[C@@H]1Cc2ccccc2[C@@H]1NC(=O)[C@@H]1CCCN1C(=O)[C@@H](NC(=O)[C@H](C)NC)C1CCCCC1)C1CCCCC1` .
# output false (0)

# input GET /call?item= `COc1cc(OC)c(/C=C/S(=O)(=O)Cc2cnc(OC)c(N)c2)c(OC)c1` returns the recorded outcome of this test.
# output true (1)

# input What was the test verdict on `O=c1c2c(nc3n1CCS3)[nH]c1ccccc12` ?
# output false (0)

# input So what was the verdict on `COC(=O)c1cc2c(cc1Cl)SC(N(N(C)C)S(=O)(=O)c1ccc(Br)s1)=NS2(=O)=O` in this test?
# output false (0)

# input Record request — test call for `O=C1Nc2ccc(C(=O)c3ccco3)cc2/C1=C/c1cc(Cl)c(O)c(Cl)c1`
# output false (0)

---

# Tested on: HCT-116 colon
# protocol-details: NCI tumour cell line growth inhibition, 48 h; in the data active means GI50 below about 0.43 µM; inactive means the rest
Respond only with the outcome that fits, drawn from TRUE for active, FALSE for inactive

Example entries and their recorded answers appear below.
compound: ClCc1cccc(Cn2cnc3c(NC45CC6CC(CC(C6)C4)C5)ncnc32)c1
assigned-label: FALSE

compound: COc1ccc(CN(C)c2ccc(CO)c(Cl)c2)cc1
assigned-label: TRUE

compound: NOCC(=O)O
assigned-label: FALSE

compound: COc1cc(OC)cc(C2CC(=O)Nc3c2c(C)nn3-c2nc3ccccc3[nH]2)c1 (centres undefined)
assigned-label: FALSE

compound: O=Cc1ccc(-c2cc(C=O)c(-c3cccs3)[nH]2)s1
assigned-label: FALSE

# input For `Nc1c(C(=O)c2ccc(Cl)cc2)sc(Nc2ccccc2)c1-c1nc2ccccc2s1` , which call appears in the assay record?
# output FALSE

# input Query: recorded result category for CC(C)=CCCC(C)c1ccc(C)c2c1OCN(CC1CCNCC1)C2 (centres undefined) in this test
# output FALSE

# input # lookup: test call for `CC(=O)[O-].CC(=O)[O-].[Pt+2].c1cscn1.c1cscn1`
# output FALSE

# input // return assay outcome for `O=c1c2cc(Cl)ccc2oc2ccc(OCCCCCN3CCCCC3)cc12`
# output FALSE

# input Per the records of this test, what outcome belongs to `Cc1c[nH]c2c(O)cc3c(c12)[C@H](CCl)CN3C(=O)c1cc2cc(NC(=O)Nc3ccc4[nH]c(C(=O)N5C[C@@H](CCl)c6c5cc(O)c5[nH]cc(C)c65)cc4c3)ccc2[nH]1` ?
# output TRUE

# input Each compound tested received a call. Report the one for `C=C1C(=O)O[C@H]2[C@H]1CC/C(CNC(=O)c1cc3cc(OC)ccc3[nH]1)=C\CC[C@@]1(C)O[C@@H]21` .
# output FALSE

# input Status in this test for `COc1cc(C(=O)/C(C)=C/c2c[nH]c3ccccc23)cc(OC)c1OC` ?
# output TRUE

# input Recorded test outcome, item `Cc1nc2sc(C(=O)Nc3cccc(Cl)c3C)c(N)c2cc1C(=O)/C=C/c1ccccc1`
# output TRUE

# input Please share the test call associated with `COc1cc2c(cc1OCCCOc1cc3c(cc1OC)C(=O)N1C[C@H](F)C[C@H]1C=N3)N=C[C@@H]1C[C@@H](F)CN1C2=O` .
# output FALSE
